These data points were gathered from BigSolDB 2.1.

# assay.context: in ethanol, 303.15 K
measure: solubility (mole fraction)
# output: bare number, no unit

Give its solubility (mole fraction) value. Item: O=C(O)c1c(O)cccc1O
0.286

* * *

# assay.context: in n-butanol, 313.15 K
measure: solubility (mole fraction)
# output: bare number, no unit

Give its solubility (mole fraction) value. Item: O=C(O)c1c(O)cccc1O
0.29

* * *

# assay.context: in methanol, 278.15 K
measure: solubility (mole fraction)
# output: bare number, no unit

Give its solubility (mole fraction) value. Item: O=C(O)c1c(O)cccc1O
0.2

* * *

# assay.context: in isopropanol, 313.15 K
measure: solubility (mole fraction)
# output: bare number, no unit

Give its solubility (mole fraction) value. Item: O=C(O)c1c(O)cccc1O
0.315

* * *

# assay.context: in methanol, 293.15 K
measure: solubility (mole fraction)
# output: bare number, no unit

Give its solubility (mole fraction) value. Item: O=C(O)c1c(O)cccc1O
0.247

* * *

# assay.context: in ethanol, 293.15 K
measure: solubility (mole fraction)
# output: bare number, no unit

Give its solubility (mole fraction) value. Item: O=C(O)c1c(O)cccc1O
0.258

* * *

# assay.context: in ethanol, 313.15 K
measure: solubility (mole fraction)
# output: bare number, no unit

Give its solubility (mole fraction) value. Item: O=C(O)c1c(O)cccc1O
0.306

* * *

# assay.context: in isopropanol, 303.15 K
measure: solubility (mole fraction)
# output: bare number, no unit

Give its solubility (mole fraction) value. Item: O=C(O)c1c(O)cccc1O
0.292

* * *

# assay.context: in n-butanol, 308.15 K
measure: solubility (mole fraction)
# output: bare number, no unit

Give its solubility (mole fraction) value. Item: O=C(O)c1c(O)cccc1O
0.275

* * *

# assay.context: in n-butanol, 303.15 K
measure: solubility (mole fraction)
# output: bare number, no unit

Give its solubility (mole fraction) value. Item: O=C(O)c1c(O)cccc1O
0.26

* * *

# assay.context: in isopropanol, 283.15 K
measure: solubility (mole fraction)

Give its solubility (mole fraction) value. Item: O=C(O)c1c(O)cccc1O
0.24

* * *

# assay.context: in n-butanol, 293.15 K
measure: solubility (mole fraction)

Give its solubility (mole fraction) value. Item: O=C(O)c1c(O)cccc1O
0.23

* * *

# assay.context: in n-butanol, 283.15 K
measure: solubility (mole fraction)
# output: bare number, no unit

Give its solubility (mole fraction) value. Item: O=C(O)c1c(O)cccc1O
0.202

* * *

# assay.context: in ethanol, 288.15 K
measure: solubility (mole fraction)

Give its solubility (mole fraction) value. Item: O=C(O)c1c(O)cccc1O
0.245

* * *

# assay.context: in isopropanol, 288.15 K
measure: solubility (mole fraction)
# output: bare number, no unit

Give its solubility (mole fraction) value. Item: O=C(O)c1c(O)cccc1O
0.254
